Test system: Trypanosoma brucei brucei
assay explanation: Antitrypanosomal activity against Trypanosoma brucei brucei BF427 assessed as growth inhibition measured after 48 hrs by Alamar blue assay
Type: functional
measurement setup: BF427, 48 h
Entry class follows EC90: low: < 0.7 µM; middle: ≥ 0.7 µM and < 2 µM; high: ≥ 2 µM

molecule	target or test system	group label
O=C(Nc1ccc2sc(-c3ccccc3)nc2c1)c1ccsc1	Trypanosoma brucei brucei	high
O=C(Nc1ccc2sc(-c3ccccc3)nc2c1)c1nccs1	Trypanosoma brucei brucei	high
CC(C)(Cc1csc(-c2ccccc2)n1)NC(=O)c1ccccc1	Trypanosoma brucei brucei	high
O=C(Nc1ccc2sc(-c3ccc(F)c(F)c3)nc2c1)N1CCC(C(F)(F)F)C1 (configuration not stated)	Trypanosoma brucei brucei	high

Entry `O=C(Nc1ccc2sc(-c3ccccc3)nc2c1)N1CCSC1` belongs to which category? high

Entry `O=C(Nc1ccc2sc(-c3ccc(F)cc3)nc2c1)N1CCCC1` belongs to which category? middle

Entry `O=C(Nc1ccc2sc(-c3cccc(F)c3)nc2c1)N1CCCCC1` belongs to which category? low

---

Test system: Liver
assay explanation: Half life in human liver microsomes at 1.5 uM in presence of NADPH by liquid chromatography/tandem mass spectrometric analysis
Format: ADME, microsome
property label: t1/2 (min)
Use min as the unit, but write only the number.

Examples with their reported t1/2 follow.
input smiles	property label	value units	recorded measurement
C[C@]12CC[C@H]3[C@@H](CCC4=CC(=O)CC[C@@]43C)[C@@H]1CC[C@@H]2O	t1/2	min	22.7
COc1ccc2c(c1)[C@]13CCCC[C@@H]1[C@H](C2)N(C)CC3	t1/2	min	39.15
O=C(Nc1ccc2sc(-c3ccccc3)nc2c1)N1CCCC1	t1/2	min	30
O=C(NCCc1nc(-c2cccc(F)c2)cs1)N1CCC(F)(F)CC1	t1/2	min	5.8

Switching to the query record.
So what does the record say about t1/2 for `O=C(NCCc1nc(-c2cccc(F)c2)cs1)N1CCCC(F)(F)C1` ? 5.1

---

assay explanation: Ratio of drug level in brain to plasma in mouse at 5 mg/kg, ip administered as single dose measured at 1 hr post dose by liquid chromatography/tandem mass spectrometric analysis
Assay type: ADME, organism-based
property label: BPR

Examples with their reported BPR follow.
compound	property label	recorded measurement
O=C(Nc1ccc2sc(-c3ccc(F)c(F)c3)nc2c1)N1CCC(F)C1 (stereo not drawn)	BPR	2.11
O=C(NCCc1nc(-c2ccccc2)cs1)c1ccccc1	BPR	0.3

So what does the record say about BPR for `O=C(NCCc1nc(-c2ccccc2)cs1)N1CCCCC1` ? 0.613

---

Test system: Trypanosoma brucei brucei
assay explanation: Antitrypanosomal activity against Trypanosoma brucei brucei BF427 assessed as growth inhibition measured after 48 hrs by Alamar blue assay
Type: functional
measurement setup: BF427, 48 h
Entry class follows EC90: lo = under 700 nM, mid = from 700 nM up to 2000 nM, hi = 2000 nM and over

molecule	group label
O=C(Nc1ccc2[nH]c(-c3ccccc3)nc2c1)c1ccccc1	hi
O=C(Nc1ccc2sc(-c3ccccc3)nc2c1)N1CCCCC1	mid
O=C(Nc1ccc2sc(-c3ccccc3)nc2c1)c1cscn1	hi

Entry `S=C(NCCc1nc(-c2ccccc2)cs1)c1ccccc1` belongs to which category? hi

Entry `O=C(Nc1ccc2sc(-c3cccc(F)c3)nc2c1)c1ccccc1` belongs to which category? hi

Entry NC1CCN(C(=O)Nc2ccc3sc(-c4ccc(F)c(F)c4)nc3c2)C1 (stereo not given) belongs to which category? hi

Entry `CC(C)(CNC(=O)N1CCCCC1)c1nc(-c2ccccc2)cs1` belongs to which category? hi

Entry `O=C(Nc1ccc2sc(-c3ccc(F)c(F)c3)nc2c1)N1C[C@@H](F)[C@H](F)C1` belongs to which category? mid

Entry `O=C(NCCc1nc(-c2cccc(F)c2)cs1)N1CCC(F)CC1` belongs to which category? lo
